assay: Cytotoxicity against HFF by visual cytotoxicity assay; type: cell-based; conditions: human, HFF cells
QUANTITY_MEASURED: CC50

COMPOUND	CC50
Nc1nc2c(ncn2/C=C2/CC2(CO)CCP(=O)(O)O)c(=O)[nH]1 (stereo not drawn)	> 100 µM
Nc1nc(O)c2ncn(/C=C3/CC34COP(=O)(O)OC4)c2n1 (stereo not drawn)	> 100 µM

Shift focus to the following entry.
Reported CC50 for Nc1nc2c(ncn2/C=C2/CC2(CO)CO)c(=O)[nH]1 [FILOCICLOVIR] : what is it?
> 100 µM

* * *

test: Cytotoxicity against human replicating KB cells; format: cell-based; details: KB cells
QUANTITY_MEASURED: CC50

COMPOUND	CC50
Nc1nc(O)c2ncn(/C=C3/CC34COP(=O)(O)OC4)c2n1 (configuration not stated)	> 100 µM

Shift focus to the following entry.
Reported CC50 for Nc1nc2c(ncn2/C=C2/CC2(CO)CO)c(=O)[nH]1 : what is it?
> 100 µM

* * *

assay: Cytotoxicity against HFF by neutral red uptake assay; assay type: cell-based; details: human, HFF cells
QUANTITY_MEASURED: CC50

MOLECULE	CC50
Nc1nc(O)c2ncn(/C=C3/CC34COP(=O)(O)OC4)c2n1 (configuration not stated)	> 301 µM

Reported CC50 for Nc1nc2c(ncn2/C=C2/CC2(CO)CO)c(=O)[nH]1 : what is it?
> 380 µM

* * *

test system: HFF; test: Cytotoxicity against HFF by visual cytotoxicity assay; assay type: cell-based; conditions: human, hff
QUANTITY_MEASURED: CC50

Reported CC50 for Nc1nc2c(ncn2/C=C2/CC23CCP(=O)(O)OC3)c(=O)[nH]1 (stereo unspecified) : what is it?
> 100 µM

* * *

test system: Human alphaherpesvirus 3; test: Antiviral activity against Varicella zoster virus in HFF by plaque reduction assay; type: functional, organism-based
QUANTITY_MEASURED: pEC50
Remember, pEC50 is on a log scale: it is -log10 of the molar concentration.

Reported pEC50 for Nc1nc2c(ncn2COCCO)c(=O)[nH]1 : what is it?
5.36

* * *

test: Cytotoxicity against human CEM cells; assay type: cell-based; conditions: CCRF-CEM cells
QUANTITY_MEASURED: CC50

Reported CC50 for Nc1nc(O)c2ncn(/C=C3/CC34COP(=O)(O)OC4)c2n1 (stereo unspecified) : what is it?
> 100 µM

* * *

test system: KB; assay: Cytotoxicity against human replicating KB cells; type: cell-based; conditions: kb
QUANTITY_MEASURED: CC50

Reported CC50 for Nc1nc2c(ncn2/C=C2/CC23CCP(=O)(O)OC3)c(=O)[nH]1 (stereo unspecified) : what is it?
> 100 µM

* * *

test system: Human betaherpesvirus 5; assay: Antiviral activity against cyclopropavir-resistant Human cytomegalovirus 2696r expressing most of UL97 phosphotransferase sequence deleted mutant by plaque reduction assay; assay type: functional, organism-based; settings: Human betaherpesvirus 5, 2696r
QUANTITY_MEASURED: pEC50
Remember, pEC50 is on a log scale: it is -log10 of the molar concentration.

MOLECULE	TGT	QUANTITY_MEASURED	EXPERIMENTAL_RESULT
Nc1nc2c(ncn2/C=C2/CC2(CO)CCP(=O)(O)O)c(=O)[nH]1 (stereo not drawn)	Human betaherpesvirus 5	pEC50	5.52
Nc1nc2c(ncn2/C=C2/CC23CCP(=O)(O)OC3)c(=O)[nH]1 (stereo not drawn)	Human betaherpesvirus 5	pEC50	5.52

Shift focus to the following entry.
Reported pEC50 for Nc1nc2c(ncn2/C=C2/CC2(CO)CO)c(=O)[nH]1 : what is it?
4.55

* * *

tested on: Human betaherpesvirus 5; assay: Antiviral activity against drug-resistant Human cytomegalovirus E8 isolate expressing UL97 phosphotransferase with two point mutation in UL97 gene by plaque reduction assay; assay type: functional, organism-based; conditions: Human betaherpesvirus 5, E8
Here, each record is paired with measured EC50 data.
Provide only the numeric value, understood in µM.

COMPOUND	EC50, µM
Nc1nc2c(ncn2/C=C2/CC2(CO)CO)c(=O)[nH]1	8

Reported EC50 for Nc1nc2c(ncn2/C=C2/CC23CCP(=O)(O)OC3)c(=O)[nH]1 (stereo not drawn) : what is it?
4

Reported EC50 for Nc1nc2c(ncn2/C=C2/CC2(CO)CCP(=O)(O)O)c(=O)[nH]1 (stereo not drawn) : what is it?
3.2

* * *

experiment: Cytotoxicity against MEF; format: cell-based; conditions: mouse, MEF cells
QUANTITY_MEASURED: CC50

COMPOUND	CC50
Nc1nc2c(ncn2/C=C2/CC2(CO)CO)c(=O)[nH]1 [FILOCICLOVIR]	> 380 µM

Shift focus to the following entry.
Reported CC50 for Nc1nc(O)c2ncn(/C=C3/CC34COP(=O)(O)OC4)c2n1 (configuration not stated) : what is it?
> 301 µM

* * *

Here, each record is paired with measured pEC50 data.
system: Murid betaherpesvirus 1; assay: Antiviral activity against Murine cytomegalovirus in MEF by plaque reduction assay; assay type: functional, organism-based
Remember, pEC50 is on a log scale: it is -log10 of the molar concentration.

Examples from the recorded data:
COMPOUND	QUANTITY_MEASURED	EXPERIMENTAL_RESULT
Nc1nc2c(ncn2/C=C2/CC2(CO)CCP(=O)(O)O)c(=O)[nH]1 (centres undefined)	pEC50	6.89
Nc1nc2c(ncn2/C=C2/CC23CCP(=O)(O)OC3)c(=O)[nH]1 (centres undefined)	pEC50	6.40
Nc1nc2c(ncn2/C=C2/CC2(CO)CO)c(=O)[nH]1	pEC50	6.57

Shift focus to the following entry.
Reported pEC50 for Nc1nc(O)c2ncn(/C=C3/CC34COP(=O)(O)OC4)c2n1 (centres undefined) : what is it?
5.14

* * *

assay: Cytotoxicity against human Akata cells; assay type: cell-based; conditions: akata
QUANTITY_MEASURED: CC50

Reported CC50 for Nc1nc2c(ncn2/C=C2/CC23CCP(=O)(O)OC3)c(=O)[nH]1 (stereo unspecified) : what is it?
> 100 µM

* * *

Here, each record is paired with measured pEC50 data.
tested on: Human alphaherpesvirus 3; assay: Antiviral activity against Varicella zoster virus in HFF assessed as inhibition of virus-induced cytopathic effect; type: functional, organism-based
pEC50: −log10 of the molar value.

Examples from the recorded data:
COMPOUND	EXPERIMENTAL_RESULT
Nc1nc2c(ncn2/C=C2/CC23CCP(=O)(O)OC3)c(=O)[nH]1 (centres undefined)	< 3.52
Nc1nc2c(ncn2/C=C2\CC2(CO)CCP(=O)(O)O)c(=O)[nH]1 (centres undefined)	3.72
Nc1nc2c(ncn2/C=C2/CC2(CO)CO)c(=O)[nH]1	< 3.42

Shift focus to the following entry.
Identify the measured pEC50 of Nc1nc(O)c2ncn(/C=C3/CC34COP(=O)(O)OC4)c2n1 (centres undefined) for Human alphaherpesvirus 3.
< 3.52

* * *

assay: Cytotoxicity against human Daudi cells; type: cell-based
QUANTITY_MEASURED: CC50 (µM)
Provide only the numeric value, understood in µM.

Reported CC50 for Nc1nc(O)c2ncn(/C=C3/CC34COP(=O)(O)OC4)c2n1 (stereo unspecified) : what is it?
150

* * *

test system: Human gammaherpesvirus 4; experiment: Antiviral activity against Epstein-Barr virus in human Akata cells by DNA hybridization assay; format: functional, organism-based; conditions: human gammaherpesvirus 4, Akata
Here, each record is paired with measured EC50 data.

COMPOUND	EC50
Nc1nc2c(ncn2/C=C2\CC23CCP(=O)(O)OC3)c(=O)[nH]1 (stereo not drawn)	> 100 µM
Nc1nc2c(ncn2/C=C2/CC23CCP(=O)(O)OC3)c(=O)[nH]1 (stereo not drawn)	> 100 µM

Shift focus to the following entry.
Reported EC50 for Nc1nc2c(ncn2/C=C2\CC2(CO)CCP(=O)(O)O)c(=O)[nH]1 (stereo not drawn) : what is it?
> 100 µM

* * *

Here, each record is paired with measured pEC50 data.
tested on: Human betaherpesvirus 5; assay: Antiviral activity against Human cytomegalovirus Towne in HFF by plaque reduction assay; assay type: functional, organism-based; details: Human betaherpesvirus 5, Towne
Remember, pEC50 is on a log scale: it is -log10 of the molar concentration.

MOLECULE	pEC50
Nc1nc2c(ncn2/C=C2/CC2(CO)CO)c(=O)[nH]1	6.34
Nc1nc2c(ncn2/C=C2/CC2(CO)CCP(=O)(O)O)c(=O)[nH]1 (stereo not given)	5.66

Reported pEC50 for Nc1nc2c(ncn2/C=C2/CC23CCP(=O)(O)OC3)c(=O)[nH]1 (stereo not given) : what is it?
5.62

* * *

Here, each record is paired with measured pEC50 data.
tested on: Human alphaherpesvirus 1; assay: Antiviral activity against Herpes simplex virus type 1 in HFF assessed as inhibition of virus-induced cytopathic effect; type: functional, organism-based
pEC50: −log10 of the molar value.

Examples from the recorded data:
COMPOUND	pEC50
Nc1nc2c(ncn2/C=C2/CC2(CO)CO)c(=O)[nH]1	< 3.42
Nc1nc2c(ncn2/C=C2/CC23CCP(=O)(O)OC3)c(=O)[nH]1 (stereo unspecified)	< 3.52
Nc1nc2c(ncn2COCCO)c(=O)[nH]1	5.89
Nc1nc2c(ncn2/C=C2\CC2(CO)CCP(=O)(O)O)c(=O)[nH]1 (stereo unspecified)	< 3.52
Nc1nc(O)c2ncn(/C=C3/CC34COP(=O)(O)OC4)c2n1 (stereo unspecified)	< 3.52

Shift focus to the following entry.
Reported pEC50 for Nc1nc2c(ncn2/C=C2/CC2(CO)CCP(=O)(O)O)c(=O)[nH]1 (stereo unspecified) : what is it?
4.23
